# Target Desc: HIV-1 Env of isolate MGRM-D-020 (subtype D) (HIV-1)
# Procedure Summary: cell-based or functional assay
Assay Metric: IC50 (neutralization) (µg/mL)
One number for each entry, in µg/mL.

Binder	Unit Tag	Result Number
PGT-128 (antibody, V domains shown) VH: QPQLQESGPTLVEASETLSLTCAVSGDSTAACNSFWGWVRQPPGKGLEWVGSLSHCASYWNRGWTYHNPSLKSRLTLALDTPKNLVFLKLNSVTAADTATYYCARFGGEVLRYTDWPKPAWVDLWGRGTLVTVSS VL: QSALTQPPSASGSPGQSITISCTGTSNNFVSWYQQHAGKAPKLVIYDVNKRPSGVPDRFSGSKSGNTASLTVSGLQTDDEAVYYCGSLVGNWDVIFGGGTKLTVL	µg/mL	0.011
PGT-123 (antibody, V domains shown) VH: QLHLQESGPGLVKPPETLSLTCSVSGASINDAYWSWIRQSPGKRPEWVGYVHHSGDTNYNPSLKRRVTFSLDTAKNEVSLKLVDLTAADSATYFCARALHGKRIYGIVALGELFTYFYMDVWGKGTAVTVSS VL: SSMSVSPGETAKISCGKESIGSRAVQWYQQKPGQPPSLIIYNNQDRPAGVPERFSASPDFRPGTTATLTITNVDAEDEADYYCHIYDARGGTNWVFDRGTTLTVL	µg/mL	0.018

Give IC50 (neutralization) for the following binder: PGT-126 (antibody, V domains shown) VH: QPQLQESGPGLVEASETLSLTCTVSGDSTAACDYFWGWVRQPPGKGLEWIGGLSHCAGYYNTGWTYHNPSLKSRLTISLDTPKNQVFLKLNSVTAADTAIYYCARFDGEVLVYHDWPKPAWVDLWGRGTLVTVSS VL: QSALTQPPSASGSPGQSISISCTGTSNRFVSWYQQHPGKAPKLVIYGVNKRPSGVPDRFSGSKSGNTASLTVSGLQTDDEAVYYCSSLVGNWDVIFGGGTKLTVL
0.023

Values were extracted from patent US20160264649A1.
